Target or test system: human progesterone receptor A (Homo sapiens)
Construct: expressed in transfected cells; host or cells: SK-N-MC human neuroblastoma cells, stably transfected with pRChPR-A-neo and pMMTV-LUC
Sequence (P06401 1-769 isoform P06401-2): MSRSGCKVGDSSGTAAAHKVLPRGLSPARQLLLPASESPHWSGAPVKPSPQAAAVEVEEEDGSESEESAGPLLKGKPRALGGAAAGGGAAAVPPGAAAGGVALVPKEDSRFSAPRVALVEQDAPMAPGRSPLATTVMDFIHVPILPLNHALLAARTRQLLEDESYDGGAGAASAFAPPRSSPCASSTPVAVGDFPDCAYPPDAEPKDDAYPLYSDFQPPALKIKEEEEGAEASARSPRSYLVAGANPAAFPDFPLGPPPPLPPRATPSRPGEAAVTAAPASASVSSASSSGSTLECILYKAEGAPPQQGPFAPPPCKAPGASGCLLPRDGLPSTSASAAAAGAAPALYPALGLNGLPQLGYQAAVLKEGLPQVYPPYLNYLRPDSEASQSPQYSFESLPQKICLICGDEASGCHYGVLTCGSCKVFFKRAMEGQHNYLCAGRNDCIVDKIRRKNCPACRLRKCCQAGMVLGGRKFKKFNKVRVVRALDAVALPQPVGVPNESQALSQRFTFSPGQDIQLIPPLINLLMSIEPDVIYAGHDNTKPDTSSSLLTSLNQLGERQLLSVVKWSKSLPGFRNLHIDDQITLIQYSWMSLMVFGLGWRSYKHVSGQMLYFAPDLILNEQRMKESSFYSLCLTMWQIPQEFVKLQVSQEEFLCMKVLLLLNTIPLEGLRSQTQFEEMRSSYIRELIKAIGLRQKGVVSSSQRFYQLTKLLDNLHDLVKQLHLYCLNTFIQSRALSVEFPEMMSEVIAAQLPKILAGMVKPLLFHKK
Experimental details: Progesterone receptor-antagonistic action in stably transfected SK-N-MC cells, PR-A, MMTV-LUC reporter
Format: cell-based
Test parameters: read-out: IC50 PR-A
pIC50: −log10 of the molar value.
Reported metric: pIC50

Please review the entries below; each comes with its answer.
{"Compound": "C[C@]12C[C@H](c3ccc(C#CCO)cc3)C3=C4CCC(=O)C=C4CC[C@H]3[C@@H]1CC[C@@]2(O)C(F)(F)C(F)(F)F [Example 1]", "pIC50": 10.01}
{"Compound": "C=CCNC(=O)OCC#Cc1ccc([C@H]2C[C@@]3(C)C(CC[C@@]3(O)C(F)(F)C(F)(F)F)C3CCC4=CC(=O)CCC4=C32)cc1 (stereo partly shown) [Example 44]", "pIC50": 11.00}
{"Compound": "C[C@]12C[C@H](c3ccc(C#CCOCCO)cc3)C3=C4CCC(=O)C=C4CC[C@H]3[C@@H]1CC[C@@]2(O)C(F)(F)C(F)(F)F [Example 11]", "pIC50": 9.49}
{"Compound": "CCOC(=O)CCNC(=O)NCC#Cc1ccc([C@H]2C[C@@]3(C)C(CC[C@@]3(O)C(F)(F)C(F)(F)F)C3CCC4=CC(=O)CCC4=C32)cc1 (stereo partly shown) [Example 30]", "pIC50": 10.00}

[A] C[C@]12C[C@H](c3ccc(C#CCNC(=O)NCc4ccccc4)cc3)C3=C4CCC(=O)C=C4CCC3C1CC[C@@]2(O)C(F)(F)C(F)(F)F (stereo partly shown) [Example 39]
[B] C[C@]12C[C@H](c3ccc(C#C/C=C/C#N)cc3)C3=C4CCC(=O)C=C4CCC3C1CC[C@@]2(O)C(F)(F)C(F)(F)F (stereo partly shown) [Example 4]
[C] C[C@]12C[C@H](c3ccc(C#CC=NOCc4ccc(Cl)c(Cl)c4)cc3)C3=C4CCC(=O)C=C4CCC3C1CC[C@@]2(O)C(F)(F)C(F)(F)F (mixture of isomers) [Example 27]
Returns the items ordered by pIC50, from maximum to minimum. Arrange the labels as the request states and list them. A, B, C

----------
Target or test system: human progesterone receptor B (Homo sapiens, UniProt P06401)
Construct: expressed in transfected cells; host or cells: SK-N-MC human neuroblastoma cells, stably transfected with pRChPR-B-neo and pMMTV-LUC
Experimental details: Progesterone receptor-antagonistic action in stably transfected SK-N-MC cells, PR-B, MMTV-LUC reporter
Assay type: cell-based
Test parameters: read-out: IC50 PR-B
Reported metric: IC50 (nM)

[A] CC(C)CO/N=C/C#Cc1ccc([C@H]2C[C@@]3(C)C(CC[C@@]3(O)C(F)(F)C(F)(F)F)C3CCC4=CC(=O)CCC4=C32)cc1 (mixture of isomers) [Example 26]
[B] Cc1ccc(NC(=O)NCC#Cc2ccc([C@H]3C[C@@]4(C)[C@@H](CC[C@@]4(O)C(F)(F)C(F)(F)F)[C@@H]4CCC5=CC(=O)CCC5=C43)cc2)cc1 [Example 38]
Parameter metric = IC50. Return the lower-valued option from A and B . Reply with the label of the item you choose. A

[1] COc1ccc(NC(=O)NCC#Cc2ccc([C@H]3C[C@@]4(C)[C@@H](CC[C@@]4(O)C(F)(F)C(F)(F)F)[C@@H]4CCC5=CC(=O)CCC5=C43)cc2)cc1 [Example 32]
[2] CCOC(=O)/C=C/C#Cc1ccc([C@H]2C[C@@]3(C)C(CC[C@@]3(O)C(F)(F)C(F)(F)F)C3CCC4=CC(=O)CCC4=C32)cc1 (stereo partly shown) [Example 6]
Parameter metric = IC50. Return the lower-valued option from 1 and 2 . Reply with the label of the item you choose. 1
(1: 0.1 nM, 2: 12 nM)

----------
Target or test system: human progesterone receptor B (Homo sapiens)
Construct: expressed in transfected cells; host or cells: SK-N-MC human neuroblastoma cells, stably transfected with pRChPR-B-neo and pMMTV-LUC
Experimental details: Progesterone receptor-antagonistic action in stably transfected SK-N-MC cells, PR-B, MMTV-LUC reporter
Format: cell-based
Test parameters: read-out: IC50 PR-B
Reported metric: IC50 (nM)

Please review the entries below; each comes with its answer.
{"Compound": "C[C@]12C[C@H](c3ccc(C#CCOCC#N)cc3)C3=C4CCC(=O)C=C4CCC3C1CC[C@@]2(O)C(F)(F)C(F)(F)F (some centres unmarked) [Example 14]", "IC50 [nM]": 0.1}
{"Compound": "C[C@]12C[C@H](c3ccc(C#C/C=C/C#N)cc3)C3=C4CCC(=O)C=C4CCC3C1CC[C@@]2(O)C(F)(F)C(F)(F)F (some centres unmarked) [Example 4]", "IC50 [nM]": 0.1}

[A] C[C@]12C[C@H](c3ccc(C#CCNC(=O)Nc4ccccc4)cc3)C3=C4CCC(=O)C=C4CC[C@H]3[C@@H]1CC[C@@]2(O)C(F)(F)C(F)(F)F [Example 34]
[B] COc1ccc(NC(=O)OCC#Cc2ccc([C@H]3C[C@@]4(C)C(CC[C@@]4(O)C(F)(F)C(F)(F)F)C4CCC5=CC(=O)CCC5=C43)cc2)cc1 (some centres unmarked) [Example 52]
API: POST /compare with A and B ; response names the item with higher IC50. Reply with the label of the item you choose. A
